test system: ICS; assay: qHTS profiling for inhibitors of Plasmodium falciparum proliferation (AID 504749); also: nearly all actives have a fitted effect of over 60% in size; also: potency is read from the fitted curve at half-maximal effect; settings: P. falciparum in erythrocytes, SYBR Green DNA, 72 h; series mostly up to 12.8 µM
Inconclusive results are not listed. Calls of active or inactive are those of the source. Calls follow the shape of the dose curve; as a rule, active = well fitted inhibition curve with a large enough effect; inconclusive = small, poorly fitted or top-dose-only effect; inactive = flat fitted curve, though single readings scatter.
readout.label: Potency

# count of solved cases: 5
>>> data_value("COc1cc(C2c3cc4c(cc3C(O[C@@H]3OC5COC(c6cccs6)OC5C(O)C3O)C3COC(=O)C23)OCO4)cc(OC)c1O (some centres undefined)")
"1.26 µM (active)"
>>> data_value("CC1(C)SC2C(N3C(=O)C(c4ccccc4)NC3(C)C)C(=O)N2C1C(=O)O (centres undefined)")
"inactive"
>>> data_value("CN[C@H]1[C@@H](O)[C@@H](NC)[C@@H]2O[C@@]3(O)C(=O)C[C@@H](C)O[C@H]3O[C@H]2[C@H]1O")
"inactive"
>>> data_value("c1ccc2c(c1)CCC[C@@H]2C1=NCCN1")
"inactive"
>>> data_value("O=C1OC(CO)C(O)C(O)C1O (centres undefined)")
"inactive"

QUERY: Read off the recorded Potency for CN(C/C=C\c1ccccc1)Cc1cccc2ccccc12
RESULT: 11.2 µM (active)

QUERY: Read off the recorded Potency for C[C@@]12C=CC(=O)C=C1CCC1C3CC(O)[C@@](O)(C(=O)CO)[C@]3(C)CC(O)[C@]12F (some centres undefined)
RESULT: inactive

QUERY: Read off the recorded Potency for COc1ccccc1OC[C@H](O)CO
RESULT: inactive

QUERY: Read off the recorded Potency for CCC1OC(=O)C(C)[C@@H](O[C@H]2C[C@@](C)(OC)C(O)C(C)O2)C(C)[C@@H](O[C@@H]2OC(C)CC(N(C)C)C2O)[C@@](C)(O)CC(C)C(=O)[C@@H](C)C(O)[C@]1(C)O (some centres undefined)
RESULT: inactive

QUERY: Read off the recorded Potency for CCCC(=O)O[C@]1(C(=O)CO)CCC2[C@@H]3CCC4=CC(=O)CC[C@]4(C)C3C(O)C[C@]21C (some centres undefined)
RESULT: inactive

QUERY: Read off the recorded Potency for C[C@H]1CS(=O)(=O)CCN1/N=C\c1ccc([N+](=O)[O-])o1
RESULT: inactive

QUERY: Read off the recorded Potency for CC=C(/C(=C/C)c1ccc(O)cc1)c1ccc(O)cc1
RESULT: inactive

* * *

molecular target: Rap guanine nucleotide exchange factor 4 (Homo sapiens) (UniProt Q8WZA2); assay: Confirmatory qHTS for antagonist of cAMP-regulated guanine nucleotide exchange factor 4 (EPAC2) (AID 1645885); details: EPAC2 Rap1B-BODIPY-GDP exchange fluorescence, biochemical; series mostly up to 12.7 µM; also: nearly all actives have a fitted effect of over 25% in size
Sequence (Q8WZA2 whole entry, looked up): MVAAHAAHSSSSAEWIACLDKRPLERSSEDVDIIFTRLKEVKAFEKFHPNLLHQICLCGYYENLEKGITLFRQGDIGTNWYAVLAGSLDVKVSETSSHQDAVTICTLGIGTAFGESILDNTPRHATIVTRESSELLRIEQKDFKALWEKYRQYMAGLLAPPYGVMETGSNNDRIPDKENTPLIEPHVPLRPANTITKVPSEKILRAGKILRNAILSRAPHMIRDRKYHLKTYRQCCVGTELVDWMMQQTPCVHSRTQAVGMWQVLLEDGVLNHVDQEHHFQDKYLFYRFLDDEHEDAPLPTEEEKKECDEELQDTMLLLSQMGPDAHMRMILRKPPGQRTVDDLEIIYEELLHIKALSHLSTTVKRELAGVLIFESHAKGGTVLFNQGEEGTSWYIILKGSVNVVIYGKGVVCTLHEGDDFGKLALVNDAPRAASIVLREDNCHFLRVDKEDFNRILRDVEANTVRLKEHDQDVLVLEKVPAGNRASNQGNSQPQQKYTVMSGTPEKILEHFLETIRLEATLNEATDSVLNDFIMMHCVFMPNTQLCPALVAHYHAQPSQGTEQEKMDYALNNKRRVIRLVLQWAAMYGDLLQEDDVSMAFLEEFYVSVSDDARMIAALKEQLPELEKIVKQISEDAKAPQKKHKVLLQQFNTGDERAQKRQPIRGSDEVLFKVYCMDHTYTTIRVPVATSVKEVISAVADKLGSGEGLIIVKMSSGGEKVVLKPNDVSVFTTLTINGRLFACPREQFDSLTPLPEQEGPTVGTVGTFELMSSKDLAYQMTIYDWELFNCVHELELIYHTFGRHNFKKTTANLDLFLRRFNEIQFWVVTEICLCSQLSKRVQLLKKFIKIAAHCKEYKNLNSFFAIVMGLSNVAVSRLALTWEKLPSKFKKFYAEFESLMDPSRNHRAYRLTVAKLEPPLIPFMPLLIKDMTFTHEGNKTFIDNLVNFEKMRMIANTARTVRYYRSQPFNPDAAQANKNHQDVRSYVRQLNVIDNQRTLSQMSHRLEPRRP
Results filed as inconclusive are left out. Activity calls are given as the source filed them. Calls follow the shape of the dose curve; as a rule, active = well fitted inhibition curve with a large enough effect; inconclusive = small, poorly fitted or top-dose-only effect; inactive = no such curve, though single readings can be large or run the other way.
Could you please pick one outcome from this set? active, inactive

>>> assigned_label("CCc1ccc(NC(=O)CSc2nnc(Cc3cccn3C)n2-c2ccc(OC)cc2)cc1")
"inactive"
>>> assigned_label("COc1ccc(OC)c(/C=C2\\SC(=S)N(NS(=O)(=O)c3ccc(C)cc3)C2=O)c1")
"active"
>>> assigned_label("CCc1nc2c(OCc3ccc(C(=O)OC)cc3)cccn2c1N(C)C(=O)CC(C)C")
"inactive"
>>> assigned_label("CC(=O)Nc1ccc(NS(=O)(=O)c2cn(C)c(=O)n(C)c2=O)cc1")
"inactive"

QUERY: Hey, what did the test say about CC[C@H]1c2[nH]c3ccc(C(C)C)cc3c2[C@@H]2CCN3C(=O)CCC[C@H]1[C@H]23 ?
RESULT: inactive

QUERY: Hey, what did the test say about C=CCCCN(Cc1ccccc1)S(=O)(=O)c1ccccc1Br ?
RESULT: inactive
